# ASSAYED SYSTEM: JAK3 (Homo sapiens (Human), UniProt P52333)
# Sequence (P52333 whole entry): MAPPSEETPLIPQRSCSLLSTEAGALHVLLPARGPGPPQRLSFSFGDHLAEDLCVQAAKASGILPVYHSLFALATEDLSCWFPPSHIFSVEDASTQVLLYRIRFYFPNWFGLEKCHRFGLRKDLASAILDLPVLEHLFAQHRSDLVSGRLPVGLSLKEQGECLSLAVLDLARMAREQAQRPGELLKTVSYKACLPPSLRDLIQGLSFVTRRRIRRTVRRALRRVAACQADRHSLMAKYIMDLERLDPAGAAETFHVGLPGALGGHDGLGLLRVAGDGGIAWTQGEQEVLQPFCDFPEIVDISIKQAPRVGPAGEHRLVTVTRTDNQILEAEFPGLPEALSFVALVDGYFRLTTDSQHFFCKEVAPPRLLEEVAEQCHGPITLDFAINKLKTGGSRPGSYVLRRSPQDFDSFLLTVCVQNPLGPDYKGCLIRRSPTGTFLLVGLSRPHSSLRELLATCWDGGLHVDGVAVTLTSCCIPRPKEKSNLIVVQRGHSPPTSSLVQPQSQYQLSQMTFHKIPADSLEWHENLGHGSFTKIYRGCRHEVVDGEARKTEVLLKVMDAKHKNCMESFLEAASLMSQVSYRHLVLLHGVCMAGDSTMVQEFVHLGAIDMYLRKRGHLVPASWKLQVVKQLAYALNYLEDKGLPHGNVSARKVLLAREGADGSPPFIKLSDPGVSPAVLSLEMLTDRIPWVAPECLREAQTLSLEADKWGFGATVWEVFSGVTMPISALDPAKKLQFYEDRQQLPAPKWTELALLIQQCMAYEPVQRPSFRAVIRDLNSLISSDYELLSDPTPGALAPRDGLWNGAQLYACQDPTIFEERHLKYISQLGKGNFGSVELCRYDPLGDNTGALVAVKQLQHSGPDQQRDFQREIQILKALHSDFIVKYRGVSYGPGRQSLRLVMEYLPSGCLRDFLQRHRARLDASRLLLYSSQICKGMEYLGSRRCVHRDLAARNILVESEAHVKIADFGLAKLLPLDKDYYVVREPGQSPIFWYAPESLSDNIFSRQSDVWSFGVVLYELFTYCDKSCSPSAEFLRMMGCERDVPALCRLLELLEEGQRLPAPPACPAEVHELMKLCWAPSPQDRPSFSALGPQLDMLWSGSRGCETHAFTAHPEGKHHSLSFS
# TEST DETAILS: JAK3 enzyme assay (Assay Example^b 1)
# DETAILS: IC50 (μM) JAK3, Table^b 80; ATP 100 μM
READOUT KIND: log10(IC50) (log10 of the value in µM)
Give log10 of IC50, with IC50 taken in µM.

Query: Read off the recorded log10(IC50) for C[C@@H]1CCN(Cc2cccc(C(F)(F)F)c2)C[C@@H]1n1ccc(=O)c2cnc3[nH]ccc3c21 (racemic) [compound 39]
Response: -0.74

Query: Read off the recorded log10(IC50) for C[C@@H]1CCN(Cc2cccc(C#N)c2)C[C@@H]1n1ccc(=O)c2cnc3[nH]ccc3c21 (racemic) [compound 42]
Response: -1.03

Query: Read off the recorded log10(IC50) for O=C1NCc2cnc3[nH]ccc3c2N1C1CCN(Cc2ccccc2)CC1 [compound 59]
Response: 0.32

Query: Read off the recorded log10(IC50) for C[C@@H]1CCN(S(=O)(=O)c2ccccc2C#N)C[C@@H]1n1ccc(=O)c2cnc3[nH]ccc3c21 (racemic) [compound 25]
Response: -1.15

Query: Read off the recorded log10(IC50) for O=c1ccn(C2CCN(Cc3ccccc3)CC2)c2c1cnc1[nH]ccc12 [compound 54]
Response: -0.33

Query: Read off the recorded log10(IC50) for O=c1ccn(C2CCN(Cc3ccc(C(F)(F)F)o3)CC2)c2c1cnc1[nH]ccc12 [compound 71]
Response: -0.34

Query: Read off the recorded log10(IC50) for O=C1NCc2cnc3[nH]ccc3c2N1C1CCNCC1 [compound 68]
Response: 0.96

Query: Read off the recorded log10(IC50) for C[C@@H]1CCN(Cc2ccccc2)C[C@@H]1n1ccc(=O)c2cnc3[nH]cc(Br)c3c21 (racemic) [compound 21]
Response: -0.09
